Listed compounds paired with reported MDCK cells survival rate
Test system: MDCK cells
ASSAY INFO: in vitro
Assay type: cell-based, canine
RECORDED CONDITIONS: dog, 72 h, 12.5 µmol·L−1
Procedure: The 3-(4,5-dimethylthiazol-2-yl)-2,5-diphenyltetrazolium bromide (MTT) method was performed to assess the cytotoxicity of target compounds in MDCK cells and HEK293T cells. Firstly, MDCK cells or HEK293T cells were seeded into the 96-well plate. Then, the media containing test compounds replaced the growth media after 48 h. […] Finally, absorbance was read at 620 nm using an ELISA plate reader (Tecan Sunrise) after 3 h of further incubation at 37 °C. […]
Please give the number followed by its unit.

Known MDCK cells survival rate results, listed for orientation:
O=C(NC1CCC(O)CC1)c1ccc(Nc2ccnc3cc(C(F)(F)F)ccc23)cc1 (stereo not shown)
84.64±7.10%
O=C(c1ccc(Nc2ccnc3cc(C(F)(F)F)ccc23)cc1)N1CCN(c2cccc(C(F)(F)F)c2)CC1
83.03±1.26%
COc1ccccc1OCCNC(=O)c1ccc(Nc2ccnc3cc(C)ccc23)cc1
83.41±3.67%

The compound COc1ccccc1OCCNC(=O)c1ccc(Nc2ccnc3cc([N+](=O)[O-])ccc23)cc1 showed MDCK cells survival rate equal to 101.22±6.39%

###

System: MDCK cells
ASSAY INFO: in vitro
Type: cell-based, canine
RECORDED CONDITIONS: dog, 72 h, 25 µmol·L−1
ENDPOINT LABEL: MDCK cells survival rate (%)
Give the number; % is assumed, so skip it.

GET /value?item= COc1ccccc1OCCNC(=O)c1ccc(Nc2ccnc3cc(OC(F)(F)F)ccc23)cc1 [Compound G22] &field=MDCK cells survival rate returns 99.56

###

Tested on: influenza virus A/WSN/33 (H1N1)
ASSAY INFO: organism not typed
Format: cell-based
RECORDED CONDITIONS: MDCK, 72 h; read-out: Cytopathic Effect Assay (A/WSN/33, H1N1) EC50
ENDPOINT LABEL: log10 of EC50 (log10 of the value in µM)
On a log10 scale: recorded EC50, unit µM.

Cc1onc(-c2ccccc2)c1C(=O)N1CCN(c2ccc([N+](=O)[O-])cc2Cl)CC1 [nucleozin, reference compound]
-0.68

// recorded log10 of EC50 for COc1ccccc1OCCNC(=O)c1ccc(Nc2ccnc3cc(C(F)(F)F)ccc23)cc1 [Compound G07] : 1.06

log10 of EC50 reading for O=C(NC1CCC(O)CC1)c1ccc(Nc2ccnc3cc(C(F)(F)F)ccc23)cc1 (centres unmarked) [Compound G10] : 1.02

log10 of EC50 measured on O=C(O)c1ccc(Nc2ccnc3cc(C(F)(F)F)ccc23)cc1 = 1.36

log10 of EC50 reported for this compound CCCNC(=O)c1ccc(Nc2ccnc3cc(C(F)(F)F)ccc23)cc1 [Compound G03] : 1.00

Quick note, log10 of EC50 for O=C(NCCCO)c1ccc(Nc2ccnc3cc(C(F)(F)F)ccc23)cc1 [Compound G05] landed at 1.61

Query O=C(NCc1ccccc1)c1ccc(Nc2ccnc3cc(C(F)(F)F)ccc23)cc1 [Compound G11] yields log10 of EC50 of 0.86

###

Documented inhibition at 100 µM across a set of molecules
MEASURED ON: ribonucleoprotein (RNP) of influenza virus (Influenza A virus)
ASSAY INFO: cell-based
RECORDED CONDITIONS: HEK-293T; concentration 100 µM; read-out: RNP Reconstitution Assay Inhibition Rate
// note: answer is a bare numeric in %

O=C(NCCCO)c1ccc(Nc2ccnc3cc(C(F)(F)F)ccc23)cc1
17.6
CC(C)NC(=O)c1ccc(Nc2ccnc3cc(C(F)(F)F)ccc23)cc1
3.1
COc1ccccc1OCCNC(=O)c1ccc(Nc2ccnc3cc(C(F)(F)F)ccc23)cc1
80.7
CCNC(=O)c1ccc(Nc2ccnc3cc(C(F)(F)F)ccc23)cc1
21
COc1ccccc1OCCNC(=O)c1ccc(Nc2ccnc3ccc(C(F)(F)F)cc23)cc1
22.6

Sure, the documented inhibition at 100 µM for Cc1onc(-c2ccccc2)c1C(=O)N1CCN(c2ccc([N+](=O)[O-])cc2Cl)CC1 [nucleozin, reference compound] is 92.9

The molecule COc1ccccc1OCCNC(=O)c1ccc(Nc2ccnc3ccccc23)cc1 showed inhibition at 100 µM equal to 13.9

Briefly, inhibition at 100 µM measured for O=C(c1ccc(Nc2ccnc3cc(C(F)(F)F)ccc23)cc1)N1CCOCC1 : 50

###

Measured HEK293T cells survival rate values are reported for all entries that follow.
System: HEK293T cells
ASSAY INFO: in vitro
Assay type: cell-based
RECORDED CONDITIONS: human, 72 h, 50 µmol·L−1
Field format: number, assumed %, no unit text.

Please review the following examples before continuing.
O=C(NCCCO)c1ccc(Nc2ccnc3cc(C(F)(F)F)ccc23)cc1
93.06
CC(C)NC(=O)c1ccc(Nc2ccnc3cc(C(F)(F)F)ccc23)cc1
75.54
Cc1ccccc1N1CCN(C(=O)c2ccc(Nc3ccnc4cc(C(F)(F)F)ccc34)cc2)CC1
80.60

Lab note: COc1ccccc1OCCNC(=O)c1ccc(Nc2ccnc3ccc(C(F)(F)F)cc23)cc1 gave HEK293T cells survival rate of 72.10

###

Recorded inhibition at 50 µM, one value per entry.
Tested on: influenza virus A/WSN/33 (H1N1)
ASSAY INFO: microbe, parasite or virus in culture
Type: cell-based
RECORDED CONDITIONS: H1N1|WSN, MDCK, 72 h, read-out: Antiviral activity in CPE assay
Record the value in %, omitting the unit from your answer.

O=C(NCc1ccccc1)c1ccc(Nc2ccnc3cc(C(F)(F)F)ccc23)cc1 [Compound G11]
44.1

According to the records, this compound O=C(NCCCN1CCOCC1)c1ccc(Nc2ccnc3cc(C(F)(F)F)ccc23)cc1 [Compound G08] displays inhibition at 50 µM of 31.1

###

The molecules listed here are annotated with their HEK293T cells survival rate.
System: HEK293T cells
ASSAY INFO: in vitro
Type: cell-based
RECORDED CONDITIONS: human, 72 h, 100 µmol·L−1
Give the number; % is assumed, so skip it.

O=C(NCCCO)c1ccc(Nc2ccnc3cc(C(F)(F)F)ccc23)cc1
122.90
COc1ccccc1OCCNC(=O)c1ccc(Nc2ccnc3c(C)cccc23)cc1
60.29
COc1ccccc1OCCNC(=O)c1ccc(Nc2ccnc3ccccc23)cc1
112.18
O=C(NC1CCC(O)CC1)c1ccc(Nc2ccnc3cc(C(F)(F)F)ccc23)cc1 (centres unmarked)
109.24
COc1ccccc1OCCNC(=O)c1ccc(Nc2ccnc3cc(C)ccc23)cc1
50.09

Reported HEK293T cells survival rate for O=C(c1ccc(Nc2ccnc3cc(C(F)(F)F)ccc23)cc1)N1CCN(c2ccc(OC(F)(F)F)cc2)CC1 was 81.59

The recorded HEK293T cells survival rate for Cc1ccccc1N1CCN(C(=O)c2ccc(Nc3ccnc4cc(C(F)(F)F)ccc34)cc2)CC1 is 81.89

Recorded result, Cc1ccc(N2CCN(C(=O)c3ccc(Nc4ccnc5cc(C(F)(F)F)ccc45)cc3)CC2)cc1 , HEK293T cells survival rate: 77.49

###

Parameter: HEK293T cells survival rate. Scope: all listed entries.
Tested on: HEK293T cells
ASSAY INFO: in vitro
Format: cell-based
RECORDED CONDITIONS: human, 72 h, 6.25 µmol·L−1
Field: numeric (%). Do not append units.

O=C(NCc1ccccc1)c1ccc(Nc2ccnc3cc(C(F)(F)F)ccc23)cc1 [Compound G11]
101.78

Record summary for COc1ccccc1OCCNC(=O)c1ccc(Nc2ccnc3ccccc23)cc1 [Compound G19] : reported HEK293T cells survival rate = 103.54

Short answer for CCNC(=O)c1ccc(Nc2ccnc3cc(C(F)(F)F)ccc23)cc1 [Compound G01] : HEK293T cells survival rate was 90.01

###

Tested on: HEK293T cells
ASSAY INFO: in vitro
Type: cell-based
RECORDED CONDITIONS: human, 72 h, 12.5 µmol·L−1
ENDPOINT LABEL: HEK293T cells survival rate (%)
Entry rule: numbers only, all in %.

Entry COc1ccccc1OCCNC(=O)c1ccc(Nc2ccnc3cc(C(F)(F)F)ccc23)cc1 — recorded HEK293T cells survival rate = 91.58

###

System: HEK293T cells
ASSAY INFO: in vitro
Assay type: cell-based
RECORDED CONDITIONS: human, 72 h, 6.25 µmol·L−1
Some molecules, each annotated with its measured HEK293T cells survival rate.
Numeric answer only, unit % assumed.

Summary line: COc1ccccc1OCCNC(=O)c1ccc(Nc2ccnc3ccc(Cl)cc23)cc1 , HEK293T cells, reported HEK293T cells survival rate = 103.50

Observed HEK293T cells survival rate, HEK293T cells, Cc1ccc(N2CCN(C(=O)c3ccc(Nc4ccnc5cc(C(F)(F)F)ccc45)cc3)CC2)cc1 : 95.00

Tested system HEK293T cells; HEK293T cells survival rate recorded for O=C(c1ccc(Nc2ccnc3cc(C(F)(F)F)ccc23)cc1)N1CCN(c2ccc(OC(F)(F)F)cc2)CC1 was 104.46

For the molecule O=C(NCCCO)c1ccc(Nc2ccnc3cc(C(F)(F)F)ccc23)cc1 , the measured HEK293T cells survival rate on HEK293T cells was 109.11

Case O=C(NCCCN1CCOCC1)c1ccc(Nc2ccnc3cc(C(F)(F)F)ccc23)cc1 , HEK293T cells, HEK293T cells survival rate recorded as 97.00
